- target: Amine oxidase [flavin-containing] B (Homo sapiens, UniProt P27338)
- Sequence (P27338 whole entry): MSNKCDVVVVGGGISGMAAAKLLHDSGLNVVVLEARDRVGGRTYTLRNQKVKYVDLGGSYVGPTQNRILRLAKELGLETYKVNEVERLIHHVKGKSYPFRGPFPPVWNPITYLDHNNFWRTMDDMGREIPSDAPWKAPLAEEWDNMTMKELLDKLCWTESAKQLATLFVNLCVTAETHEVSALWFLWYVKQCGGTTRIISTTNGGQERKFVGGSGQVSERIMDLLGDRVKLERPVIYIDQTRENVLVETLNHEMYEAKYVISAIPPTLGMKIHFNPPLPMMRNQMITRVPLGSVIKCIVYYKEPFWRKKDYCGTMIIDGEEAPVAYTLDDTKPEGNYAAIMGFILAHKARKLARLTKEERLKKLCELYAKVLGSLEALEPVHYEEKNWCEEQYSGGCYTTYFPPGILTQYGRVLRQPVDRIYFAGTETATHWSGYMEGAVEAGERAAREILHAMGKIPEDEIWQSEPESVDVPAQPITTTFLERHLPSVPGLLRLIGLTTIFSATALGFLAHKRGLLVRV
- test_details: Inhibition of recombinant human MAOB using kynuramine as substrate assessed as decrease in formation of 4-hydroxyquinoline incubated for 20 mins by fluorescence assay
property_name: log10(Ki) (log10 of the value in µM)
# values: log10(Ki), units µM

Here is how some molecules turned out for log10(Ki).
>>> df
                            chemical_smiles  measurement
0  CN(Cc1ccc(F)cc1)S(=O)(=O)c1ccc2c(c1)C(=O)C(=O)N2         0.41
1                 C#CCN1C(=O)C(=O)c2ccccc21         1.18
2  C#CCN1C(=O)C(=O)c2cc(S(=O)(=O)N(C)Cc3ccccc3F)ccc21         1.74

Exercise: log10(Ki) for CN(Cc1cccc(F)c1)S(=O)(=O)c1ccc2c(c1)C(=O)C(=O)N2 ?
Solution: 0.55

Exercise: Similarly, C#CCN1C(=O)C(=O)c2cc(S(=O)(=O)N(C)Cc3cccc(F)c3)ccc21 ?
Solution: 1.48

---

- target: Amine oxidase [flavin-containing] B (Homo sapiens)
- test_details: Inhibition of recombinant human MAOB using kynuramine as substrate assessed as decrease in formation of 4-hydroxyquinoline incubated for 20 mins by fluorescence assay
Reported IC50 values follow for various compounds
Just the number in µM, nothing appended.

Reference set (4 entries):
>>> print(df.to_string())
                            chemical_smiles  property_name  value_unit  measurement
0  C#CCN1C(=O)C(=O)c2cc(S(=O)(=O)N(C)Cc3ccccc3F)ccc21           IC50          µM          128
1                 C#CCN1C(=O)C(=O)c2ccccc21           IC50          µM         35.2
2  CN(Cc1cccc(F)c1)S(=O)(=O)c1ccc2c(c1)C(=O)C(=O)N2           IC50          µM         8.32
3  C#CCN1C(=O)C(=O)c2cc(S(=O)(=O)N(C)Cc3cccc(F)c3)ccc21           IC50          µM         70.6

Exercise: What value of IC50 has been reported for the following compound? CN(Cc1ccc(F)cc1)S(=O)(=O)c1ccc2c(c1)C(=O)C(=O)N2
Solution: 5.96

---

- target: Amine oxidase [flavin-containing] A (Homo sapiens, UniProt P21397)
- Sequence (P21397 whole entry): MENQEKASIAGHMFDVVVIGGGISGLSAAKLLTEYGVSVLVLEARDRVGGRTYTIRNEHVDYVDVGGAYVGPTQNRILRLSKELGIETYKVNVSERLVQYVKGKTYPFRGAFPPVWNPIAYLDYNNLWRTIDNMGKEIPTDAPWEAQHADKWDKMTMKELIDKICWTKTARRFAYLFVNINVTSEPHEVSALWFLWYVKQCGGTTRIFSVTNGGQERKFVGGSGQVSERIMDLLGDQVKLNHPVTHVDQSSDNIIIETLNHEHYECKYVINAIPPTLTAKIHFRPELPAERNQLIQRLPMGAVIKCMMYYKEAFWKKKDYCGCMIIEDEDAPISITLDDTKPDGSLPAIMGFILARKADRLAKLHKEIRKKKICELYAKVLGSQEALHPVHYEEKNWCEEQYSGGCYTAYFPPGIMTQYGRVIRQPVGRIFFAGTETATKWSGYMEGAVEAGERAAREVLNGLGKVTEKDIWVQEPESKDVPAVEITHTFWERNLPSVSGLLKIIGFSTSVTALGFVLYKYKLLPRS
- test_details: Inhibition of recombinant human MAOA using kynuramine as substrate assessed as decrease in formation of 4-hydroxyquinoline incubated for 20 mins by fluorescence assay
pIC50: −log10 of the molar value.
# binarize pIC50: threshold 5 inclusive, high side label 1, low side label 0

Previously resolved entries follow.
>>> df
                            chemical_smiles                                    target  classification
0  CN(Cc1ccccc1F)S(=O)(=O)c1ccc2c(c1)C(=O)C(=O)N2  Amine oxidase [flavin-containing] A (Homo sapiens, UniProt P21397)         label 0
1  CN(Cc1cccc(F)c1)S(=O)(=O)c1ccc2c(c1)C(=O)C(=O)N2  Amine oxidase [flavin-containing] A (Homo sapiens, UniProt P21397)         label 0
2                 C#CCN1C(=O)C(=O)c2ccccc21  Amine oxidase [flavin-containing] A (Homo sapiens, UniProt P21397)         label 0

Now look at this entry.
Exercise: Does C#CCN1C(=O)C(=O)c2cc(S(=O)(=O)N(C)Cc3ccc(F)cc3)ccc21 have a reported pIC50 of at least 5?
Solution: label 1
